The measured values listed here are drawn from patent US20210214432A1.

// reported Kd per item
# measured_on: T1, DLK1-hFc fusion protein (extracellular region of human DLK1 fused with human Fc) (human, UniProt P80370 24-303)
# T1 construct: The ELISA text says 'DLK1 protein'/'antigen DLK1' coated at 100 ng/well; also called hDLK1; DLK1 antigen
# T1 sequence: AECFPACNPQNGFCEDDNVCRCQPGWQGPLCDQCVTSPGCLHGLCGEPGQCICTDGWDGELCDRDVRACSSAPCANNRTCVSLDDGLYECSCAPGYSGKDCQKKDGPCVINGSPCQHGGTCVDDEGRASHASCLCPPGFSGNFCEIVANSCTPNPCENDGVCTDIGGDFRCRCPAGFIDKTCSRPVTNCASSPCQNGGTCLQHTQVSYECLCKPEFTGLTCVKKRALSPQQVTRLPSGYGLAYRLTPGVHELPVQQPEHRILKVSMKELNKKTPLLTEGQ
# assay_procedure: ELISA, coated DLK1 antigen, IgG titrated 100 nM to 0.046 nM, GraphPad Prism fit
Give the figure together with its unit, number first.

Hello, please tell me recorded Kd for this one: human anti-DLK1 monoclonal antibody variant 18A5_AM_1A12 (antibody, V domains shown) VH: QVQLVQSGGGVVQPGGSLRLSCAASGFKFKDYGMHWVRQAPGKGLEWLAVISHDGRNKNYADSVKGRLTISRDNSKNTLSFQMNSLRAEDTAVYYCVRDWSYAFDIWGQGTLVTVSS VL: DIQMTQSPSFLSASVGDRVTITCRASHDISSSLAWYQQKSGKAPKLLIYSASNLKSGVPSRFSGSGSGTDFSLTISSLQPEDFATYYCQQSYTTVLTFGGGTKLEIK
0.013 nM

Now examine the next entry.
Hello, please tell me recorded Kd for this one: human anti-DLK1 monoclonal antibody 35E2 (antibody, V domains shown, Converted from scFv to IgG) VH: QVQLVESGGGVVQPGRSLRLSCAASGFTFSSYAMHWVRQAPGKGLEWVAVIYSGGSTYYADSVKGRFTISRDNSKNTLYLQMNSLRAEDTAVYYCAREGSYDVMTYTRIGGYFDYWGQGALVTVSS VL: DIQMTQSPSSVSASVGDRVTITCRASQGISDWVAWYQQKPGKAPKLLIYAASSLQSGVPSRFSGSGSGTEFSLTISNLQPEDFATYYCQQANSFPLTFGPGTKVEIK
0.33 nM
